TEST_PROTOCOL: STM_H9_NormalizedViability: Cytotoxicity Assessment at 120 hours in the Stemina devTOX quickPredict H9 human embryonic stem cell (hESC)-based Assay (AID 2283784)
Results filed as inconclusive are left out. Active and inactive are the calls of the source. The calls were made as follows: active = hit-call score of the fitted dose curve at least 0.9, where 1 is the maximum; inconclusive = response in the unintended direction; inactive = score below 0.9.
Reply using exactly one outcome from true for active, false for inactive

Completed entries (count: 2):
Each compound tested received a call. Report the one for Nc1ccc(Nc2ccccc2)cc1 .
true

Likewise for CNCc1ccc(NC(=O)c2c[nH]c3c2C(=O)CCC3)cc1 ?
false

Others:
For CCOC(=O)c1ccc(C2CCC(NC[C@H](O)COc3ccc(O)c(NS(C)(=O)=O)c3)CC2)cc1 (stereo partly drawn) , which call appears in the assay record?
false

====

Read-out: Interleukin 6 (IL6), IL6 (gene 3569)
TEST_PROTOCOL: LTEA_HepaRG_IL6: Life Technologies and Expression Analysis (LTEA) Assay for Interleukin 6 (IL6) using HepaRG (AID 2283509)
APPLIED_CONDITIONS: mRNA level, 48 h; actives raise or lower the signal
Activity calls are given as the source filed them. The calls were made as follows: active = hit-call score of the fitted dose curve at least 0.9, where 1 is the maximum; inactive = score below 0.9.
# valid calls are yes (1) (active), no (0) (inactive); nothing else

These solved cases illustrate the format of a correct answer.
How was O=c1[nH]c2ccc(S(=O)CCN3CCC(Cc4ccc(F)cc4)CC3)cc2o1 (centres undefined) classified in this test?
yes (1)

Subsequent entry: C[C@](N)(Cc1ccc(O)c(O)c1)C(=O)O
no (0)

// query: COC(=O)c1ccccc1O
no (0)

# ---- query molecule ----
So what was the verdict on Oc1ccc2c(c1)-c1ccccc1C2 in this test?
no (0)

====

TEST_PROTOCOL: BSK_3C_Proliferation: Cell Proliferation Assessment in the BioMAP Diversity Plus: 3C Assay (AID 2283006)
APPLIED_CONDITIONS: primary human endothelial cells (HUVEC)
The source made the active and inactive calls. Rule for the calls: active = hit-call score of the fitted dose curve at least 0.9, where 1 is the maximum; inactive = score below 0.9.
The reply should name one outcome from active, inactive

These recorded examples may help you get a feel for the data.
Which result was noted for this molecule in the test: CC[C@H]1OC(=O)[C@H](C)[C@@H](O[C@H]2C[C@@](C)(OC)[C@@H](O)[C@H](C)O2)[C@H](C)[C@@H](O[C@@H]2O[C@H](C)C[C@H](N(C)C)[C@H]2O)[C@](C)(O)C[C@@H](C)C(=O)[C@H](C)[C@@H](O)[C@]1(C)O
inactive

What would you report for COCCOCCOCCOC ?
inactive

Queued: CN(C)c1ccc(Cc2ccc(N(C)C)cc2)cc1
active

Quick one: O=C(O)CCN(C1(C(=O)NO)CCCC1)S(=O)(=O)c1ccc(Oc2ccc(F)cc2)cc1
inactive

Quick one: NC(=O)NO
inactive

Try the molecule O=C(O)c1cccc(N(Cc2cccnc2)c2ccc(OC(F)F)c(OC(F)F)c2)c1
inactive

Next:
What is the recorded call for this molecule in the test? CC(C)CCCCCCCOC(=O)CCCCC(=O)OCCCCCCCC(C)C
inactive

// same read-out, input: CCn1nc(Cc2ccccc2)cc1C1CCN(C[C@H]2C[C@H](N(C)[C@@H](C(=O)O)C(C)C)C[C@@H]2c2cccc(F)c2)CC1
inactive

Then this molecule: CCOc1cccc(-n2cc(C(=O)N3CCN(c4cc(C(=O)O)c5ccccc5c4)CC3)nc2-c2ccc(C)cc2)c1
active

What do we get for CCCCC(CC)COC(=O)c1ccc(C(=O)OCC(CC)CCCC)cc1 (stereo not given) ?
inactive

Next record, please: CNCc1ccc(NC(=O)c2c[nH]c3c2C(=O)CCC3)cc1
inactive

Entry CCNc1ccccc1 please
inactive

For Cc1ccc(S(=O)(=O)O)cc1C then?
inactive

What do we get for CCOC(=O)c1ccc(C2CCC(NC[C@H](O)COc3ccc(O)c(NS(C)(=O)=O)c3)CC2)cc1 (stereo not given in full) ?
active

Request: Cc1ccc(C)c(O)c1
inactive

====

Read-out: CYP2E1 (gene 1571)
TEST_PROTOCOL: LTEA_HepaRG_CYP2E1: Life Technologies and Expression Analysis (LTEA) Assay for CYP2E1 using HepaRG (AID 2283485)
APPLIED_CONDITIONS: mRNA level, 48 h; actives raise or lower the signal
Calls of active or inactive are those of the source. Rule for the calls: active = hit-call score of the fitted dose curve at least 0.9, where 1 is the maximum; inactive = score below 0.9.
Respond with a class label; see t = active, f = inactive

Identify the outcome logged in this assay for the compound shown: CCNc1ccccc1
f

Try this compound next: CCOc1cccc(-n2cc(C(=O)N3CCN(c4cc(C(=O)O)c5ccccc5c4)CC3)nc2-c2ccc(C)cc2)c1
t

Another: Cn1cnc([N+](=O)[O-])c1Sc1ncnc2nc[nH]c12
t

Next up: Nc1ccc(Nc2ccccc2)cc1
t

Then what about the compound O=C(CCCCCCCCc1cccnc1)N1CCC(C=C(c2ccccc2)c2ccccc2)CC1 ?
t

Would you kindly repeat that for O=C(O)CCN(C1(C(=O)NO)CCCC1)S(=O)(=O)c1ccc(Oc2ccc(F)cc2)cc1 ?
f

Continuing:
How was COc1ccc(-n2nc(C(F)F)cc2-c2ccc(S(C)=O)cc2)cc1 (stereo not drawn) classified in this test?
t

Another compound to look at: COC(=O)CC(=O)OC
t

Repeat with CC[C@H]1CC[C@H](NCc2cc3c(cc2OC)[C@H]2C[C@H]2C(=O)N3C)[C@H](c2ccccc2)N1
t

Note, next up: CC1(C)C(=O)N(Br)C(=O)N1Br
f

For Clc1nc(Cl)c(Cl)c(Cl)c1Cl then?
f

====

TARGET_DESC: Transcription factor Sp1 (Homo sapiens)
TEST_PROTOCOL: ATG_Sp1_CIS: Attagene CIS-FACTORIAL HepG2 Assay for human Specificity Protein 1 (Sp1) (AID 2282961)
APPLIED_CONDITIONS: HepG2 Sp1 cis-reporter transcription, actives raise or lower the signal
Active and inactive are the calls of the source. The calls were made as follows: active = hit-call score of the fitted dose curve at least 0.9, where 1 is the maximum; inactive = score below 0.9.
Your response should consist of one outcome taken from active, inactive

Below, 2 molecules whose answers are already recorded.
For CN(C)c1ccc(N=NS(=O)(=O)O)cc1 , what call appears in the results of this test?
inactive

Try the molecule COc1ccc2sc(C(=O)Nc3nnn[nH]3)c(OC(C)C)c2c1
inactive

More entries:
Tell me the recorded outcome of this test for O=c1[nH]c2ccc(S(=O)CCN3CCC(Cc4ccc(F)cc4)CC3)cc2o1 (stereo unspecified) .
inactive

Could you do the same for CCCCC(CC)COC(=O)CCCCCCCCC(=O)OCC(CC)CCCC (stereo unspecified) , please?
inactive

// next record Nc1nc2ncc(CNc3ccc(C(=O)N[C@@H](CCC(=O)O)C(=O)O)cc3)nc2c(=O)[nH]1
inactive

Input CCOCCO
inactive

# iterate: O=C(O)c1cc(N=Nc2ccc(S(=O)(=O)Nc3ccccn3)cc2)ccc1O
inactive

Also CCCCCCCCCCCCCCCO , if possible.
inactive

====

TARGET_DESC: rat Neonicotinoid receptor (NNR), Chrna7 (gene 25302) (UniProt Q05941)
Sequence (Q05941 whole entry, looked up): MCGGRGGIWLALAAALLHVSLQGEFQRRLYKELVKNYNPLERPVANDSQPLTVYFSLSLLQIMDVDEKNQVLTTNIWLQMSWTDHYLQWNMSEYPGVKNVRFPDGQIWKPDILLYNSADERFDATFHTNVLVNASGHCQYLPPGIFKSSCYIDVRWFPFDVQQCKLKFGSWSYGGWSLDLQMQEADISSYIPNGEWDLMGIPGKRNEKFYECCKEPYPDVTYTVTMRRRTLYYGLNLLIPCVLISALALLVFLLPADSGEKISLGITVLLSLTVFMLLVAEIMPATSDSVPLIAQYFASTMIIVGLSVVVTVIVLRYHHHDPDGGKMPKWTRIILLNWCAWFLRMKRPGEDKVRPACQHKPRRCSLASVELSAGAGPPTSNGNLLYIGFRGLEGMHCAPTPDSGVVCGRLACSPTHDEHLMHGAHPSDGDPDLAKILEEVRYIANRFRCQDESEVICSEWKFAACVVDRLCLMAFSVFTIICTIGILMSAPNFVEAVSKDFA
TEST_PROTOCOL: NVS_LGIC_rNNR_BungSens: NovaScreen (NVS) Ligand-Gated Ion Channel Assay for rat Neonicotinoid receptor (NNR) (AID 2283315)
Results filed as inconclusive are left out. Activity calls are given as the source filed them. How the source made its calls: active means hit-call score of the fitted dose curve at least 0.9, where 1 is the maximum; inconclusive means response in the unintended direction; inactive means score below 0.9.
MEASURED_PARAMETER: outcome

Recorded outcome for COc1cccc(-c2ccc(/C=C\CN3CCCCCC3)cc2Cl)c1 , please?
inactive

Item: CC[C@H]1CC[C@H](NCc2cc3c(cc2OC)[C@H]2C[C@H]2C(=O)N3C)[C@H](c2ccccc2)N1
inactive

Note, next up: CCOC(=O)CC(CC(=O)OCC)(OC(C)=O)C(=O)OCC
inactive

====

Read-out: Interleukin-8 (IL8), CXCL8 (gene 3576)
TEST_PROTOCOL: BSK_CASM3C_IL8: BioMAP Diversity Plus: CASM3C Assay for Interleukin-8 (IL8) Biomarker Activity (AID 2283042);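 also: IL-8 protein level quantified by ELISA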
APPLIED_CONDITIONS: primary human coronary artery smooth muscle cells; actives raise or lower the signal
Active and inactive are the calls of the source. How the source made its calls: active means hit-call score of the fitted dose curve at least 0.9, where 1 is the maximum; inactive means score below 0.9.
MEASURED_PARAMETER: outcome

So what's the measured outcome for this one? O=C(O)CC(O)C(=O)O (centres undefined)
inactive

Likewise for CCCCC(CC)COC(=O)c1ccc(C(=O)OCC(CC)CCCC)cc1 (centres undefined) ?
inactive

Field entry: CC(C)=CCC/C(C)=C\CO
inactive

Then what about the compound O=P(OC(CCl)CCl)(OC(CCl)CCl)OC(CCl)CCl ?
inactive

====

Read-out: Tumor necrosis factor receptor 1 (TNFRSF1A), TNFRSF1A (gene 7132)
TEST_PROTOCOL: LTEA_HepaRG_TNFRSF1A: Life Technologies and Expression Analysis (LTEA) Assay for Tumor necrosis factor receptor 1 (TNFRSF1A) using HepaRG (AID 2283535)
APPLIED_CONDITIONS: mRNA level, 48 h; actives raise or lower the signal
Calls of active or inactive are those of the source. The calls were made as follows: active = hit-call score of the fitted dose curve at least 0.9, where 1 is the maximum; inactive = score below 0.9.
MEASURED_PARAMETER: AC50

Consider the worked cases shown below.
What value of measured AC50 is listed for COc1cccc(-c2ccc(/C=C\CN3CCCCCC3)cc2Cl)c1 ?
inactive

Same lookup for CC(=O)c1ccc2c(c1)[C@H](NC(=O)c1ccc(F)cc1)[C@@H](O)C(C)(C)O2 , please.
inactive

Now the compound CCCCCCCCO
inactive

Here is the next compound: O=c1n(CC2CO2)c(=O)n(CC2CO2)c(=O)n1CC1CO1 (stereo not drawn)
inactive

Next:
For Nc1cccc(N)c1 , what is its reported AC50?
inactive

Same read-out for CCCCC(CC)COC(=O)c1ccc(C(=O)OCC(CC)CCCC)cc1 (stereo not drawn) ?
inactive

Please answer likewise for CCC(C)(C)C(=O)O[C@H]1C[C@@H](C)C=C2C=C[C@H](C)[C@H](CC[C@@H]3C[C@@H](O)CC(=O)O3)[C@H]21
inactive

// repeat for CC(C)CCCCCCOC(=O)c1ccc(C(=O)OCCCCCCC(C)C)c(C(=O)OCCCCCCC(C)C)c1 and report
inactive

Entry CCOc1cccc(-n2cc(C(=O)N3CCN(c4cc(C(=O)O)c5ccccc5c4)CC3)nc2-c2ccc(C)cc2)c1 please
80.3 µM (active)

Follow-up item: Nc1ccc(Nc2ccccc2)cc1
inactive

Do the same for CC(C)=CCC/C(C)=C\CO please
inactive

Cool, now Cc1[nH]cnc1C[C@H]1CCc2c(C)c3ccccc3n2C1=O
63.7 µM (active)

How about this compound: CN(C)c1ccc(N=NS(=O)(=O)O)cc1
12.3 µM (active)
